pIC50: −log10 of the molar value.
Field pIC50: reported value for Lysine-specific demethylase 5B (Homo sapiens, UniProt Q9UGL1); entries drawn from several documents.

Quick check: pIC50 of O=C(O)c1ccncc1Nc1nn([C@@H]2CCOC2)c2ccc(F)cc12 ?
> 7.00

Any idea what pIC50 was measured for CCc1cc(-c2ccc(C)cc2)n(-c2cc(C(=O)O)ccn2)n1 ?
6.00 to 7.00

# input compound: O=C(O)c1ccnc(-n2nccc2OC2CCCc3cc(F)ccc32)c1 (centres unmarked) ; wanted: its pIC50
6.00 to 7.00

Any idea what its pIC50 is? The compound is Oc1nc(Oc2cccc(C(F)(F)F)c2)nc2cnccc12
≥ 7.00

Which pIC50 value is on record for COc1cc(Cl)ccc1CNc1ccc2nccn2c1C#N ?
< 6.00

Name the reported pIC50 value associated with the compound O=C(O)c1ccnc(-n2nccc2OCC2CC(F)(F)C2)c1
> 7.00

Which pIC50 is reported for this compound? O=C(O)c1c(NCc2cccc(-c3ccccc3)c2)ccc2nccn12
< 6.00

What does the data say about its pIC50? Entry: O=C(O)c1ccncc1Nc1nn(CCC2CC2)c2ccc(F)cc12
> 7.00

Reported pIC50 for Cn1cnc(-c2cc(C(=O)O)ccn2)c1-c1ccc(C2CC2)cc1 : what is it?
≥ 7.00

State the recorded pIC50 for this entry: c1ccc2c(CCn3cnc(-c4cc(-c5nn[nH]n5)ccn4)c3)cccc2c1
≥ 7.00

Would you kindly share the measured pIC50 for O=C(O)c1c(NCc2ccc(F)cc2)ccc2nccn12 ?
≥ 6.30

Which pIC50 value belongs to COc1ccc(Cl)cc1CNc1cc(C(=O)O)n2ccnc2c1 ?
< 6.00

For Cc1nn(-c2cc(C(=O)O)ccn2)c(O)c1-c1ccccc1 , what is its reported pIC50?
5.00 to 6.00

Would you kindly share the measured pIC50 for CC(c1cc(C(=O)O)ccn1)N(C)CC(=O)N1CCCCC1 (centres unmarked) ?
< 5.60

Need pIC50 of Cn1cnc(-c2cc(C(=O)O)ccn2)c1-c1ccc(Cl)c(Cl)c1 , thanks.
≥ 7.00

// lookup pIC50 for O=C(O)c1ccnc(-n2nc(Cc3cccc(Cl)c3)cc2O)c1
5.00 to 6.00

Sample CN(CCn1cnc(-c2cc(C(=O)O)ccn2)c1)CC1CC1 — what was its pIC50?
≥ 7.00

Bench note: what pIC50 did O=C(O)c1ccnc(-n2nccc2OC2CCCc3cc(Cl)ccc32)c1 (centres unmarked) show?
> 7.00

Quick one: pIC50 for CC(C)(O)CCOc1nc(O)c2ccncc2n1 ?
≥ 7.00

State the recorded pIC50 for this entry: O=C(O)c1c(NCc2ccccc2OC(F)F)ccc2nccn12
6.00 to 6.30
